Biological target: recombinant human ACC1 (rhACC1) (Homo sapiens, UniProt Q13085, DEL44-44)
Construct: recombinant baculovirus containing full length human ACC1 cDNA
Test: recombinant hACC1 Transcreener assay (direct inhibition of ACC1 activity)
Conditions: Transcreener ADP detection FP assay, 50 μM ATP, 30 μM acetyl-CoA, 120 min at 25° C.
pIC50: −log10 of the molar value.
ASSAY METRIC: pIC50

CC(C)(C)n1ncc2c1C(=O)CC1(CCN(C(=O)c3cc4cccnc4[nH]3)CC1)C2 [Example 12A-1]
7.40

P: CC(C)n1ncc2c1C(=O)CC1(CCN(C(=O)c3c[nH]c4c(cnn4C)c3=O)CC1)C2 [Example 11A-66]
Q: CC(C)n1ncc2c1C(=O)CC1(CCN(C(=O)c3cc4cnccc4nc3N)CC1)C2
R: CC(C)(C)n1ncc2c1C(=O)CC1(CCN(C(=O)c3ccc(N4CCOCC4)nc3)CC1)C2 [Example 11A-22]
Q) Descending sort on pIC50 required. Put the labels in the order asked and list them.
A) Q, R, P
